# Tested on: HCT-116
# TEST_DETAILS: DD regulated IL2, IL2 ELISA with Shield-1 dose
# Assay type: cell-based, human
# SETTINGS: read-out: EC50 of Shield-1, IL2 ELISA (FIG. 58); HCT-116 transduced with OT-IL2-001
TEST_READOUT: EC50

>>> print(df.to_string())
                                     smiles  study_target  result
0  CC[C@H](C(=O)N1CCCC[C@H]1C(=O)O[C@H](CCc1ccc(OC)c(OC)c1)c1cccc(OCCN2CCOCC2)c1)c1cc(OC)c(OC)c(OC)c1       HCT-116   50 nM

---

# TEST_DETAILS: in vivo
# SETTINGS: Balb/C nu/nu, mouse, plasma, 30 mg/kg
TEST_READOUT: concentration at 4 h (nM)

                                   compound          test_readout  result_number
0  COc1cc(Cc2cnc(N)nc2N)cc(OC)c1OC [TMP, Trimethoprim]  concentration at 4 h            160

---

# System: human donor T cells
# TEST_DETAILS: Shield-1 concentration and time dependent IL12 p40 in human T cells (Tables 94-96)
# Type: cell-based
# SETTINGS: IL12 p40 from OT-IL12-026 T cells; MOI 40
TEST_READOUT: EC50 (nM)

>>> df
                                     smiles  uom  result_number
0  CC[C@H](C(=O)N1CCCC[C@H]1C(=O)O[C@H](CCc1ccc(OC)c(OC)c1)c1cccc(OCCN2CCOCC2)c1)c1cc(OC)c(OC)c(OC)c1   nM            130

---

# TEST_DETAILS: in vivo
# SETTINGS: Balb/C nu/nu, mouse, plasma, 100 mg/kg
TEST_READOUT: concentration at 0.083 h (µM)

>>> print(df.to_string())
                            smiles  result_number
0  COc1cc(Cc2cnc(N)nc2N)cc(OC)c1OC           81.5

---

# TEST_DETAILS: in vivo
# SETTINGS: Balb/C nu/nu, mouse, plasma, 30 mg/kg
TEST_READOUT: concentration at 0.083 h

                                   compound              test_readout   result
0  COc1cc(Cc2cnc(N)nc2N)cc(OC)c1OC [TMP, Trimethoprim]  concentration at 0.083 h  25.7 µM
